TESTED ON: recombinant human OX40 fused to a His-tag (Acro Biosystems, cat. no. OX0-H5224) (human) (UniProt P43489)
Sequence (P43489 29-214 limits assumed): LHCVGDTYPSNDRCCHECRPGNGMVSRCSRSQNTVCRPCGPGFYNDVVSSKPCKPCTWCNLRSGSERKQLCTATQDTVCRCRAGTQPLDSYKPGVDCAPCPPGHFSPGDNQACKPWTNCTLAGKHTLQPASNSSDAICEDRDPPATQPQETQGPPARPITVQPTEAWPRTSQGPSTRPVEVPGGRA
EXPERIMENT NOTES: BLI cross-block; first Ab (competitor): IgG1-CD134-RG7888
METRIC: association response (nm)
Respond with the bare value in nm.

Worked examples follow.
{"BINDER": "IgG1-CD134-ABBV368 (antibody, INN chains, looked up, V domains shown, IgG1) VH: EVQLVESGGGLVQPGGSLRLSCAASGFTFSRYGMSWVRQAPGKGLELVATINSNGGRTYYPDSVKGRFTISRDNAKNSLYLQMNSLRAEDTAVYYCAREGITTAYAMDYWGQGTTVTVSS VL: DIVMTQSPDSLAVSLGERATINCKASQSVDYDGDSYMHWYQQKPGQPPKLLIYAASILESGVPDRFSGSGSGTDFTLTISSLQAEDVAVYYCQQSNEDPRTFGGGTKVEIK", "UNITS SYMBOL": "nm", "association response": 0.02}
{"BINDER": "IgG1-CD134-RG7888 (antibody, INN chains, looked up, V domains shown, IgG1) VH: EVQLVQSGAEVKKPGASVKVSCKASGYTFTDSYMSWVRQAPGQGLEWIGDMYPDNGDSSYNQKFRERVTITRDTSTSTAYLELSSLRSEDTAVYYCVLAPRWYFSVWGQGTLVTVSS VL: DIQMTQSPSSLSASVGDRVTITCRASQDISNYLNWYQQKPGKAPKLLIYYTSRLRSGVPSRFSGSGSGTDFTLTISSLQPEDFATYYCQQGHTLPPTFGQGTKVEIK", "UNITS SYMBOL": "nm", "association response": 0.02}
{"BINDER": "IgG1-CD134-MEDI0562 (antibody, INN chains, looked up, V domains shown, IgG1) VH: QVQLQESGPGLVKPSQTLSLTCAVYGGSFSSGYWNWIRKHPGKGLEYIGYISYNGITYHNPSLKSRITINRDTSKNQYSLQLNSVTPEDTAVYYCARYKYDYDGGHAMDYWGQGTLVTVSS VL: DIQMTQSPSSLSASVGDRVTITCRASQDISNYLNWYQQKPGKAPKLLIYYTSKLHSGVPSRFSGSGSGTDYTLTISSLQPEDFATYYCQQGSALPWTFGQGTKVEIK", "UNITS SYMBOL": "nm", "association response": 0}

# binder IgG1-CD134-Hu106 (antibody, from another filing, V domains shown) VH: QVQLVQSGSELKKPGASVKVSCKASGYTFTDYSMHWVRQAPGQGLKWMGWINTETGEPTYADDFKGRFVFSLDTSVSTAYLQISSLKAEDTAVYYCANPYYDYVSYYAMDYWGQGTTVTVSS VL: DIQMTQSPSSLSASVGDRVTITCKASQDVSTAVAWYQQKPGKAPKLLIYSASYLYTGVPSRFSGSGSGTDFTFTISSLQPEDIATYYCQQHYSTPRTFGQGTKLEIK ; its association response = 0.02
